OD (absorbance at 450 nm) reference
tested on: Antibody to AB-Pinaca-KLH (raised against immunogen 2 of Example 6); experiment: Competitive ELISA characterising antibodies to AB-Pinaca-KLH with Tracer-1 (Example 9); assay type: binding; details: standard conc 10.00 ng/ml
# output: bare number, no unit

Example results:
> print(dat)
                                   compound                                    target              property.name  data.value
1  CC(C)C(NC(=O)c1nn(CCCCC(=O)O)c2ccccc12)C(N)=O (centres unmarked)  Antibody to AB-Pinaca-KLH (raised against immunogen 2 of Example 6)  OD (absorbance at 450 nm)       0.465
2  CCCCCn1nc(C(=O)NC(C(N)=O)C(C)C)c2ccccc21 (centres unmarked)  Antibody to AB-Pinaca-KLH (raised against immunogen 2 of Example 6)  OD (absorbance at 450 nm)       0.404
3  CC(C)C(NC(=O)c1nn(Cc2ccc(F)cc2)c2ccccc12)C(N)=O (centres unmarked)  Antibody to AB-Pinaca-KLH (raised against immunogen 2 of Example 6)  OD (absorbance at 450 nm)       0.491
4  CC(C)C(NC(=O)c1nn(CCCCCO)c2ccccc12)C(N)=O (centres unmarked) [1-(5-OHpentyl) AB-Pinaca, 1-(5-hydroxypentyl) AB-Pinaca]  Antibody to AB-Pinaca-KLH (raised against immunogen 2 of Example 6)  OD (absorbance at 450 nm)       0.356

Q: OD (absorbance at 450 nm) lookup needed for CC(C)C(NC(=O)c1nn(CCCCCF)c2ccccc12)C(N)=O (centres unmarked) , thanks.
Ans: 0.326

---

OD (absorbance at 450 nm) reference
test system: Antibody to AB-Pinaca-KLH (raised against immunogen 2 of Example 6); test: Competitive ELISA characterising antibodies to AB-Pinaca-KLH with Tracer-1 (Example 9); format: binding; details: standard conc 0.63 ng/ml
# output: bare number, no unit

Example results:
> print(dat)
                                   molecule  data.value
1  CCCCCn1nc(C(=O)NC(C(N)=O)C(C)C)c2ccccc21 (centres unmarked)       1.325
2  CC(C)C(NC(=O)c1nn(CCCCCF)c2ccccc12)C(N)=O (centres unmarked)       1.070
3  CC(C)C(NC(=O)c1nn(Cc2ccc(F)cc2)c2ccccc12)C(N)=O (centres unmarked)       1.379
4  CC(C)C(NC(=O)c1nn(CCCCCO)c2ccccc12)C(N)=O (centres unmarked) [1-(5-OHpentyl) AB-Pinaca, 1-(5-hydroxypentyl) AB-Pinaca]       1.163

# evaluate next
Q: OD (absorbance at 450 nm) of CC(C)C(NC(=O)c1nn(CCCCC(=O)O)c2ccccc12)C(N)=O (centres unmarked) on Antibody to AB-Pinaca-KLH (raised against immunogen 2 of Example 6)?
Ans: 1.529

---

test system: Antibody to AB-Pinaca-KLH (raised against immunogen 2 of Example 6); assay: Competitive ELISA characterising antibodies to AB-Pinaca-KLH with Tracer-1 (Example 9); type: binding; settings: standard conc 10.00 ng/ml
B/Bo (Percentage B/B0) reference

> print(dat)
                                   molecule                                    target  data.value
1  CC(C)C(NC(=O)c1nn(CCCCC(=O)O)c2ccccc12)C(N)=O (centres unmarked)  Antibody to AB-Pinaca-KLH (raised against immunogen 2 of Example 6)       21.2%
2  CC(C)C(NC(=O)c1nn(CCCCCO)c2ccccc12)C(N)=O (centres unmarked) [1-(5-OHpentyl) AB-Pinaca, 1-(5-hydroxypentyl) AB-Pinaca]  Antibody to AB-Pinaca-KLH (raised against immunogen 2 of Example 6)       17.3%
3  CC(C)C(NC(=O)c1nn(Cc2ccc(F)cc2)c2ccccc12)C(N)=O (centres unmarked)  Antibody to AB-Pinaca-KLH (raised against immunogen 2 of Example 6)       22.9%
4  CC(C)C(NC(=O)c1nn(CCCCCF)c2ccccc12)C(N)=O (centres unmarked)  Antibody to AB-Pinaca-KLH (raised against immunogen 2 of Example 6)       14.5%

# evaluate next
Q: B/Bo (Percentage B/B0) lookup needed for CCCCCn1nc(C(=O)NC(C(N)=O)C(C)C)c2ccccc21 (centres unmarked) , thanks.
Ans: 18.5%
